Assay: in vitro
Format: in vitro ADME, rat
Conditions: rat, microsomes, pH 7.4
Task for the reader: assign each of the following molecules its reported half-life (t1/2).
Give bare numbers, in min.

# MOLECULE, ASSAY READOUT, RESULT NUMBER
data = [
    ("CC[C@@H](C)NC(=O)[C@@H]1C=C2c3cccc4[nH]cc(c34)C[C@H]2N(C)C1", "half-life (t1/2)", 99.5),
]

Below is a list of molecules. For each, state its recorded half-life (t1/2).
1. CCC[C@@H](C)NC(=O)[C@@H]1C=C2c3cccc4[nH]cc(c34)C[C@H]2N(C)C1
2. CCN(CC)C(=O)[C@@H]1C=C2c3cccc4[nH]cc(c34)C[C@H]2N(C)C1 [LSD, lysergic acid diethylamide, reference compound]

Result:
1: 27.894; 2: 60.2

Request: # half-life (t1/2) lookup, item CCC(CC)NC(=O)[C@@H]1C=C2c3cccc4[nH]cc(c34)C[C@H]2N(C)C1
Result: 37.988

###

Task for the reader: assign each of the following compounds its reported Emax.
Target: 5-HT2A receptor (Homo sapiens)
Sequence (P28223 whole entry): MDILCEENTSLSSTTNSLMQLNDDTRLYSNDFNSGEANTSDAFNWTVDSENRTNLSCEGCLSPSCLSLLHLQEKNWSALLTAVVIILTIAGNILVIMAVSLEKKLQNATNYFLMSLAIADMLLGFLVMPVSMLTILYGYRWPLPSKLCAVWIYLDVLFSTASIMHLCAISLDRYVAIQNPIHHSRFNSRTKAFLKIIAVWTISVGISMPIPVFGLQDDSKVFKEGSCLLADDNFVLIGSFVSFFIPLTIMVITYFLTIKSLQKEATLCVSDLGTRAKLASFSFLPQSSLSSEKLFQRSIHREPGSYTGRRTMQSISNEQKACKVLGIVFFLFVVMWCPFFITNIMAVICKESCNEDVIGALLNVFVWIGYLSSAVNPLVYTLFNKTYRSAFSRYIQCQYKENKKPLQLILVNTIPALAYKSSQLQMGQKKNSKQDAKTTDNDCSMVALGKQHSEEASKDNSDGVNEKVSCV
Test: cell-based
Format: cell-based
Conditions: agonist, beta-arrestin recruitment, max dose; read-out: 5-HT2A Arrestin % Act @ Max Dose
One number for each entry, in %.

# COMPOUND, Emax (%)
measured = [
    ("CCC[C@@H](C)NC(=O)[C@@H]1C=C2c3cccc4[nH]cc(c34)C[C@H]2N(C)C1", 38.8),
    ("CCCN1C[C@H](C(=O)NC(CC)CC)C=C2c3cccc4[nH]cc(c34)C[C@H]21", 103),
    ("CC[C@@H](C)NC(=O)[C@@H]1C=C2c3cccc4[nH]cc(c34)C[C@H]2N(C)C1", 46.1),
]

Below is a list of compounds. For each, state its recorded Emax.
1. CCNC(=O)[C@@H]1C=C2c3cccc4[nH]cc(c34)C[C@H]2N(Cc2cccc(OC)c2)C1
2. CCC[C@@H](C)NC(=O)[C@H]1C=C2c3cccc4[nH]cc(c34)C[C@H]2N(C)C1 [Int17a]
3. CCN(CC)C(=O)[C@@H]1C=C2c3cccc4[nH]cc(c34)C[C@H]2N(Cc2ccccn2)C1
4. CCCN1C[C@H](C(=O)N[C@H](C)CC)C=C2c3cccc4[nH]cc(c34)C[C@H]21
5. CCN(CC)C(=O)[C@@H]1C=C2c3cccc4[nH]cc(c34)C[C@H]2N(CCc2ccccn2)C1

Result:
1. 64
2. 43.7
3. 40.6
4. 110
5. 65.2

###

Test: in vitro
Type: in vitro ADME, mouse
Conditions: mouse, microsomes; MLM (male CD-1) 0.50 mg/mL, NADPH 1 mM, 1 μM compound, pH 7.4, 37° C., 60 min; read-out: half-life (t1/2)
Task for the reader: assign each of the following molecules its reported half-life.
Give bare numbers, in min.

Below, each entry is followed by its recorded half-life result.
# MOLECULE, half-life [min]
records = [
    ("CCN(C)C(=O)[C@@H]1C=C2c3cccc4[nH]cc(c34)C[C@H]2N(CC2CCCC2)C1", 5),
    ("CCN(CC)C(=O)[C@@H]1C=C2c3cccc4[nH]cc(c34)C[C@H]2N(Cc2ccncc2)C1", 2.9),
]

Below is a list of molecules. For each, state its recorded half-life.
1. CCN(CC)C(=O)[C@@H]1C=C2c3cccc4[nH]cc(c34)C[C@H]2N(CC2CCCC2)C1
2. CCN(CC)C(=O)[C@@H]1C=C2c3cccc4[nH]cc(c34)C[C@H]2N(Cc2ccccc2)C1
3. CCN(CC)C(=O)[C@@H]1C=C2c3cccc4[nH]cc(c34)C[C@H]2N(Cc2ccc(F)c(F)c2)C1
4. CCN(CC)C(=O)[C@H]1C=C2c3cccc4[nH]cc(c34)C[C@H]2N(CC2CCCC2)C1 [Compound 90a]
5. O=C([C@@H]1C=C2c3cccc4[nH]cc(c34)C[C@H]2N(Cc2ccccc2)C1)N1CCCC1
6. CCCN(CC)C(=O)[C@@H]1C=C2c3cccc4[nH]cc(c34)C[C@H]2N(Cc2cccc(OC)c2)C1
7. CCN(C)C(=O)[C@@H]1C=C2c3cccc4[nH]cc(c34)C[C@H]2N(Cc2cccc(OC)c2)C1
8. CCN(CC)C(=O)[C@@H]1C=C2c3cccc4[nH]cc(c34)C[C@H]2N(Cc2cccc(O)c2)C1

Result:
2.1
2.5
5.7
1.9
9.5
2.3
4.3
5.7

Below is a list of molecules. For each, state its recorded half-life.
1. CCN(CC)C(=O)[C@@H]1C=C2c3cccc4[nH]cc(c34)C[C@H]2N(Cc2cocn2)C1
2. CCN(CC)C(=O)[C@@H]1C=C2c3cccc4[nH]cc(c34)C[C@H]2N(Cc2ncco2)C1
3. CCN(CC)C(=O)[C@@H]1C=C2c3cccc4[nH]cc(c34)C[C@H]2N(Cc2cccc(C#N)c2)C1
4. CC[C@@H](C)NC(=O)[C@@H]1C=C2c3cccc4[nH]cc(c34)C[C@H]2N(Cc2cccc(OC)c2)C1
5. CCN(CC)C(=O)[C@@H]1C=C2c3cccc4[nH]cc(c34)C[C@H]2N(Cc2cccc(C)c2)C1

Result:
1. 18.1
2. 16.6
3. 2.4
4. 0.7
5. 3

###

Biological target: 5-HT2B receptor (Homo sapiens)
Construct: expressed in transfected cells; host or cells: HEK293, stably transfected
Sequence (P41595 whole entry): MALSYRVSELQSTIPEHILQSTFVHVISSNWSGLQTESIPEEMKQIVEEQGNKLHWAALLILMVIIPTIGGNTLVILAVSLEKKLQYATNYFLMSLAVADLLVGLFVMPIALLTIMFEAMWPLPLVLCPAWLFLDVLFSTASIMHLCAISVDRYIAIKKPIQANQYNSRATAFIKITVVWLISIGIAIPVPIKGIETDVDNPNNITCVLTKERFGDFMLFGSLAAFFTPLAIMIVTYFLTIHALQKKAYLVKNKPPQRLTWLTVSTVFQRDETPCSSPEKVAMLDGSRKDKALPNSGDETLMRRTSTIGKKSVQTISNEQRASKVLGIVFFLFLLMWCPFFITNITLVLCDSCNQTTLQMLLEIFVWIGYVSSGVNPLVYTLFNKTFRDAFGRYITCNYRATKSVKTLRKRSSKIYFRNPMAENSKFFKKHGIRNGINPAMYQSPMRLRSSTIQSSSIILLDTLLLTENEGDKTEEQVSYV
Assay: cell-based
Assay type: cell-based
Conditions: HEK293, agonist, Ca2+ flux, HEK293, max dose; read-out: 5-HT2B % Act @ Max Dose
ASSAY READOUT: Emax (%)
One number for each entry, in %.

Below, each entry is followed by its recorded Emax result.
# COMPOUND, ASSAY SYSTEM, ASSAY READOUT, RESULT NUMBER
records = [
    ("CCCN1C[C@H](C(=O)N2[C@@H](C)C[C@@H]2C)C=C2c3cccc4[nH]cc(c34)C[C@H]21 [Compound 4]", "5-HT2B receptor (Homo sapiens)", "Emax", 87.5),
    ("CCN(CC)C(=O)[C@@H]1C=C2c3cccc4[nH]cc(c34)C[C@H]2N(Cc2cccc(F)c2)C1 [Compound 52]", "5-HT2B receptor (Homo sapiens)", "Emax", 4.22),
    ("CN1C[C@H](C(=O)N(CCF)CCF)C=C2c3cccc4[nH]cc(c34)C[C@H]21 [Compound 38]", "5-HT2B receptor (Homo sapiens)", "Emax", 28.1),
]

Let's switch to this compound now.
Request: Checklist item: Emax tested on 5-HT2B receptor (Homo sapiens), entry CCCN1C[C@H](C(=O)N[C@H](C)CC)C=C2c3cccc4[nH]c(Br)c(c34)C[C@H]21 [Compound 46] , value?
Result: 79

###

Experiment: in vitro
Format: in vitro ADME, rat
Settings: RLM (male Sprague-Dawley) 0.50 mg/mL, NADPH 1 mM, 1 μM compound, pH 7.4, 37° C., 60 min
ASSAY READOUT: Intrinsic clearance (Clint) (µL/min/mg)
Numbers only, in µL/min/mg.

Below, each entry is followed by its recorded Intrinsic clearance (Clint) result.
# MOLECULE, UNIT TEXT, Intrinsic clearance (Clint)
rows = [
    ("CCN(CC)C(=O)[C@@H]1C=C2c3cccc4[nH]cc(c34)C[C@H]2N(Cc2ccccn2)C1 [Compound 22]", "µL/min/mg", 104.8),
    ("CCN(CC)C(=O)[C@@H]1C=C2c3cccc4[nH]cc(c34)C[C@H]2N(Cc2ccccc2O)C1 [Compound 16]", "µL/min/mg", 616.3),
    ("CCN(CC)C(=O)[C@@H]1C=C2c3cccc4[nH]cc(c34)C[C@H]2N(Cc2ccc(OC)cc2)C1 [Compound 19]", "µL/min/mg", 139.0),
    ("CCN(CC)C(=O)[C@@H]1C=C2c3cccc4[nH]cc(c34)C[C@H]2N(CCc2cccc(OC)c2)C1 [Compound 20]", "µL/min/mg", 1147.6),
    ("CCN(CC)C(=O)[C@@H]1C=C2c3cccc4[nH]cc(c34)C[C@H]2N(CCc2ccc(OC)cc2)C1 [Compound 21]", "µL/min/mg", 323.2),
]

Below is a list of molecules. For each, state its recorded Intrinsic clearance (Clint).
1. CCN(CC)C(=O)[C@@H]1C=C2c3cccc4[nH]cc(c34)C[C@H]2N(Cc2ccccc2OC)C1 [Compound 10]
2. CCN(CC)C(=O)[C@@H]1C=C2c3cccc4[nH]cc(c34)C[C@H]2N(Cc2ccnc(OC)c2)C1 [Compound 79]
3. C[C@H]1C[C@H](C)N1C(=O)[C@@H]1C=C2c3cccc4[nH]cc(c34)C[C@H]2N(C)C1 [Int11]
4. [2H]C([2H])([2H])Oc1cccc(CN2C[C@H](C(=O)N(CC)CC)C=C3c4cccc5[nH]cc(c45)C[C@H]32)c1 [Compound 56]

Result:
[407.4, 80.5, 25.3, 224.5]

Values compiled from patent US20260317319A1.
